Ki values for the compounds below.
biological target: Human immunodeficiency virus type 1 protease (Human immunodeficiency virus 1, UniProt Q72874, L90M); test: Inhibition of HIV1 HXB2 protease L90M mutant
Non-standard residues stand in square brackets, D forms with d. Residues, ends and D or L forms follow the SMILES beside them. Groups on a side chain read outwards from the residue. 2Nal = N[C@@H](Cc1ccc2ccccc2c1)C(=O)O; hArg = N=C(N)NCCCC[C@H](N)C(=O)O; hPhe = N[C@@H](CCc1ccccc1)C(=O)O; Cha = N[C@@H](CC1CCCCC1)C(=O)O; Phg = N[C@H](C(=O)O)c1ccccc1; Dap = NC[C@H](N)C(=O)O
Value expressed in µM; do not type the unit.

• CSCC[C@H](NC(=O)[C@H](CC1CCCCC1)NC(=O)[C@@H](N)Cc1ccc2ccccc2c1)C(=O)N[C@@H](CCC(=O)O)C(=O)N[C@H](C(=O)N[C@@H](CC1CCCCC1)C(=O)O)c1ccccc1 (H-[2Nal][Cha]ME[Phg][Cha]-OH) = 2.4

For the next question, use this compound.
Q: Let me know recorded Ki for CC(C)C[C@H](NC(=O)[C@H](Cc1ccccc1)NC(=O)[C@H](CCCCNC(=N)N)NC(=O)[C@@H](N)CNC(=O)[C@H](CC1CCCCC1)NC(=O)[C@@H](N)CCc1ccccc1)C(=O)O (H-[Dap]([Cha-hPhe])[hArg]FL-OH) , thanks.
A: 26.5

* * *

pKi values for the molecules below.
molecular target: Human immunodeficiency virus type 1 protease (Human immunodeficiency virus 1, UniProt Q72874, L90M); assay: Inhibition of HIV1 HXB2 protease L90M mutant
Non-standard residues stand in square brackets, D forms with d. Residues, ends and D or L forms follow the SMILES beside them. Groups on a side chain read outwards from the residue. ξ: configuration not given here. 2Nal = N[C@@H](Cc1ccc2ccccc2c1)C(=O)O; hArg = N=C(N)NCCCC[C@H](N)C(=O)O; hPhe = N[C@@H](CCc1ccccc1)C(=O)O; Cha = N[C@@H](CC1CCCCC1)C(=O)O; Nva = CCC[C@H](N)C(=O)O; Dap = NC[C@H](N)C(=O)O; ξDab = NCCC(N)C(=O)O
Note: pKi values are expressed as the negative base-10 logarithm of concentration in M.

* CCC[C@H](NC(=O)[C@H](Cc1ccc2ccccc2c1)NC(=O)[C@H](CCCCNC(=N)N)NC(=O)[C@@H](N)CNC(=O)[C@H](CCC)NC(=O)[C@@H](N)CCc1ccccc1)C(=O)O (H-[Dap]([Nva-hPhe])[hArg][2Nal][Nva]-OH) | 4.63

For the next question, use this molecule.
Q: Let me know recorded pKi for N=C(N)NCCC[C@H](NC(=O)C(N)CCNC(=O)[C@H](CC1CCCCC1)NC(=O)[C@@H](N)CCc1ccccc1)C(=O)N[C@@H](CCc1ccccc1)C(=O)N[C@@H](CC1CCCCC1)C(=O)O (some centres not stated) (H-[ξDab]([Cha-hPhe])R[hPhe][Cha]-OH) , thanks.
A: 4.32

* * *

assay: Inhibition of HIV1 HXB2 protease 184V mutant; parameters: species or system Human immunodeficiency virus 1
Non-standard residues stand in square brackets, D forms with d. Residues, ends and D or L forms follow the SMILES beside them. Groups on a side chain read outwards from the residue. ξ: configuration not given here. *: point of attachment. Phe(4-Br) = N[C@@H](Cc1ccc(Br)cc1)C(=O)O; Phe(4-Cl) = N[C@@H](Cc1ccc(Cl)cc1)C(=O)O; Phe(4-NH2) = Nc1ccc(C[C@H](N)C(=O)O)cc1; 2Nal = N[C@@H](Cc1ccc2ccccc2c1)C(=O)O; hArg = N=C(N)NCCCC[C@H](N)C(=O)O; hPhe = N[C@@H](CCc1ccccc1)C(=O)O; Cha = N[C@@H](CC1CCCCC1)C(=O)O; Phg = N[C@H](C(=O)O)c1ccccc1; Nle = CCCC[C@H](N)C(=O)O; Nva = CCC[C@H](N)C(=O)O; Dap = NC[C@H](N)C(=O)O; ξDap = NCC(N)C(=O)O; Bn = c1ccc(C*)cc1
So basically, if Ki comes in under 20 µM it's 1.0, and if it's 20 µM or more it's 0.0.

The examples below pair each entry with its known result.
• CCCC[C@H](NC(=O)[C@H](Cc1ccc(OCc2ccccc2)cc1)NC(=O)[C@H](Cc1ccc(N)cc1)NC(=O)[C@H](CCCCN)NC(=O)[C@H](CC1CCCCC1)NC(=O)[C@@H](N)Cc1ccc2ccccc2c1)C(=O)O (H-[2Nal][Cha]K[Phe(4-NH2)]Y(Bn)[Nle]-OH) = 0.0
• CCC[C@H](NC(=O)[C@H](Cc1ccc2ccccc2c1)NC(=O)[C@H](CCC(=O)O)NC(=O)C(N)CNC(=O)[C@H](CC1CCCCC1)NC(=O)[C@@H](N)Cc1ccc2ccccc2c1)C(=O)O (stereo partly specified) (H-[ξDap]([Cha-2Nal])E[2Nal][Nva]-OH) = 0.0
• CCC[C@H](NC(=O)[C@H](Cc1ccc2ccccc2c1)NC(=O)[C@H](CCCCNC(=N)N)NC(=O)[C@@H](N)CNC(=O)[C@H](CCC)NC(=O)[C@@H](N)CCc1ccccc1)C(=O)O (H-[Dap]([Nva-hPhe])[hArg][2Nal][Nva]-OH) = 1.0
• CSCC[C@H](NC(=O)[C@H](CC1CCCCC1)NC(=O)[C@@H](N)Cc1ccc2ccccc2c1)C(=O)N[C@@H](CCC(=O)O)C(=O)N[C@H](C(=O)N[C@@H](CC1CCCCC1)C(=O)O)c1ccccc1 (H-[2Nal][Cha]ME[Phg][Cha]-OH) = 1.0

Next:
Q: Here's an entry: CC(C)C[C@H](NC(=O)[C@H](Cc1ccc(Br)cc1)NC(=O)[C@H](CCC(=O)O)NC(=O)C(N)CNC(=O)[C@H](CC1CCCCC1)NC(=O)[C@@H](N)Cc1ccc(Cl)cc1)C(=O)O (stereo partly drawn) (H-[ξDap]([Cha-Phe(4-Cl)])E[Phe(4-Br)]L-OH) . Is its Ki below 20 µM?
A: 0.0
